Provenance of the data: patent US20060223792A1

Molecular target: recombinant human LTA4 hydrolase (rhLTA4H) (Homo sapiens)
Construct: made in house; host or cells: Spodoptera frugiperda (Sf-9) cells, baculovirus (pFastBac1)
Test: Recombinant human LTA4 hydrolase assay for LTA4 hydrolase inhibitor activity
Format: biochemical
Conditions: recombinant human LTA4H, LTB4 quantified by enzyme-linked immunoassay; average of one to three determinations; read-out: IC50
Experimental: Recombinant Human LTA4 Hydrolase Assay for LTA4 Hydrolase Inhibitor Activity Compounds of the present invention were tested for LTA4 hydrolase inhibitor activity against recombinant human LTA4 hydrolase (rhLTA4H). Vectors were prepared and used to express rhLTA4H essentially as follows: LTA4 hydrolase encoding DNA was amplified by polymerase chain reaction (PCR) using a human placental cDNA library as a template. […]
Measured pIC50 of individual entries
The read-out pIC50 is expressed as -log10 of concentration in moles per litre.

{"columns": ["compound", "pIC50"],
 "data": [
  ["CCOC(=O)C1CCCN(C2CCN(CCc3ccc(OCCc4ccccc4)cc3)CC2)C1 (stereo not drawn) [Example 18]", 7.00],
  ["COC(=O)C1CCN(CCc2ccc(OCCc3ccccc3)cc2)CC1 [Example 77]", 8.22],
  ["O=C(O)C1CCN(CCc2ccc(OCCc3ccccc3)cc2)CC1 [Example 81]", 7.72]
]}

Tell me measured pIC50 for Oc1cccc(CCOc2ccc(OCCN3CCCCC3)cc2)c1 [Example 28] please.
7.66

Tell me measured pIC50 for c1ccc2c(c1)CC(Oc1ccc(OCCN3CCCCC3)cc1)C2 [Example 69] please.
7.70

Tell me measured pIC50 for O=C(Oc1ccc(OCCN2CCCCC2)cc1)c1c[nH]c2ccccc12 [Example 68] please.
7.07

Tell me measured pIC50 for CCN(CC)CCOc1ccc(OC(=O)Nc2ccccc2)cc1 [Example 46] please.
8.15

Tell me measured pIC50 for O=C(Nc1ccccc1)Oc1ccc(OCCN2CCC(CO)CC2)cc1 [Example 51] please.
8.40

Tell me measured pIC50 for O=C(COc1ccc(CCN2CCC(N3CCCCC3=O)CC2)cc1)c1ccccc1 [Example 26] please.
6.46

###

Measured log10(IC50) of individual entries
molecular target: recombinant human LTA4 hydrolase (rhLTA4H) (Homo sapiens); construct: made in house; host or cells: Spodoptera frugiperda (Sf-9) cells, baculovirus (pFastBac1); experiment: Recombinant human LTA4 hydrolase assay for LTA4 hydrolase inhibitor activity; format: biochemical; settings: recombinant human LTA4H, LTB4 quantified by enzyme-linked immunoassay; average of one to three determinations; read-out: IC50
Form field - Quantity: IC50; Unit: nM; Scale: log10

Study these solved cases before continuing.
{"columns": ["molecule", "experimental.system", "log10(IC50)"],
 "data": [
  ["O=C(Oc1ccc(OCCN2CCCCC2)cc1)C(Cl)c1ccccc1 (centres unmarked)", "recombinant human LTA4 hydrolase (rhLTA4H) (Homo sapiens)", 2.18],
  ["O=C(Nc1ccccc1)Oc1ccc(OCCN2CCC(O)(c3ccc(Cl)cc3)CC2)cc1", "recombinant human LTA4 hydrolase (rhLTA4H) (Homo sapiens)", -0.52],
  ["CCCCN(CCCC)CCOc1ccc(OC(=O)Nc2ccccc2)cc1", "recombinant human LTA4 hydrolase (rhLTA4H) (Homo sapiens)", 0.95],
  ["OC1c2ccccc2CC1Oc1ccc(OCCN2CCCCC2)cc1 (centres unmarked)", "recombinant human LTA4 hydrolase (rhLTA4H) (Homo sapiens)", 2.28]
]}

Tell me measured log10(IC50) for `CN(CCC(=O)O)CCc1ccc(OCCc2ccccc2)cc1` please.
0.60

###

biological target: recombinant human LTA4 hydrolase (rhLTA4H) (Homo sapiens, UniProt P09960); construct: made in house; host or cells: Spodoptera frugiperda (Sf-9) cells, baculovirus (pFastBac1); assay: Recombinant human LTA4 hydrolase assay for LTA4 hydrolase inhibitor activity; format: biochemical; details: recombinant human LTA4H, LTB4 quantified by enzyme-linked immunoassay; average of one to three determinations; read-out: IC50
Sequence (P09960 whole entry): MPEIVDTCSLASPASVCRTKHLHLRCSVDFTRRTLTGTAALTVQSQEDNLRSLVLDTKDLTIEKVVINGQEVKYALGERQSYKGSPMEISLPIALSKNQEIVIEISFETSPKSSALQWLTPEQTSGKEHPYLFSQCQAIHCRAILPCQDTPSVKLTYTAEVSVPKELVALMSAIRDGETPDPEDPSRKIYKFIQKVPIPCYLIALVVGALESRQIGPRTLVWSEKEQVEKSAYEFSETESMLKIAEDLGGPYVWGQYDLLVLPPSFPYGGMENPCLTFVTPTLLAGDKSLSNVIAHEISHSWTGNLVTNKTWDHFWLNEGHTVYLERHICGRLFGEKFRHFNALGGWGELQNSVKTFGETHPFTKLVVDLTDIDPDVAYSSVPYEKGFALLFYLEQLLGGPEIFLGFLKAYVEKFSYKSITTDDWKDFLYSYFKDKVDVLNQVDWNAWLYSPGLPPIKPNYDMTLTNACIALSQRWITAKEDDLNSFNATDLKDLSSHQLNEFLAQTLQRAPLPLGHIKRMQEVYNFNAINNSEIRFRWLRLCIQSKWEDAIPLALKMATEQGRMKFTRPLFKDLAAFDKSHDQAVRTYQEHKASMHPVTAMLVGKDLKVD
Heads up, the class ranges for IC50 are Low: < 3 nM; Mid: ≥ 3 nM and < 50 nM; High: ≥ 50 nM

The entry to classify is `O=C(Nc1ccc(O)cc1)Oc1ccc(OCCN2CCC(O)(c3ccccc3)CC2)cc1` ; which class holds it?
Low

The entry to classify is NC(=O)C1CCCN(Cc2ccc(OCCc3ccccc3)cc2)C1 (stereo not drawn) ; which class holds it?
Mid

###

target: recombinant human LTA4 hydrolase (rhLTA4H) (Homo sapiens, UniProt P09960); construct: made in house; host or cells: Spodoptera frugiperda (Sf-9) cells, baculovirus (pFastBac1); test: Recombinant human LTA4 hydrolase assay for LTA4 hydrolase inhibitor activity; format: biochemical; conditions: recombinant human LTA4H, LTB4 quantified by enzyme-linked immunoassay; average of one to three determinations; read-out: IC50
pIC50: −log10 of the molar value.
Returns one of Satisfied or Not satisfied; Satisfied when pIC50 is >= 8.

Some solved cases for reference:
{"columns": ["structure", "label"],
 "data": [
  ["O=C1CCCN1C1CCN(Cc2ccc(OCCCc3ccccc3)cc2)CC1", "Satisfied"],
  ["Fc1ccccc1CCOc1ccc(OCCN2CCCCC2)cc1", "Not satisfied"],
  ["O=C(Nc1ccccc1)Oc1ccc(OCCN2CCC(Cc3ccccc3)CC2)cc1", "Not satisfied"]
]}

Let's switch to this compound now.
Please check the record `O=C(Nc1ccccc1)Oc1ccc(CCN2CCC(O)(c3ccccc3)CC2)cc1` and state if its pIC50 is at or above 8.
Not satisfied

###

Measured inhibition at 30 mg/kg of individual entries
test system: ex vivo stimulated LTB4 production; assay: Murine arachidonic acid-induced inflammation model: ex vivo stimulated LTB4 production in blood; settings: Mus musculus; 30 mg/kg oral gavage, female Balb/c mice; blood taken 3 h after arachidonic acid, stimulated ex vivo with A23187; read-out: % Inh. LTB4
Where a name gives a salt, the structure may show the parent alone.
Provide the reading as a plain figure in %.

Study these solved cases before continuing.
{"columns": ["compound", "inhibition at 30 mg/kg (%)"],
 "data": [
  ["O=C(O)CCN(CCc1ccc(OCCc2ccccc2)cc1)C1CC1 [Example 35, trifluoroacetic acid salt]", 84],
  ["O=C(O)C1CCN(Cc2ccc(OCCCc3ccccc3)cc2)CC1 [Example 112]", 91],
  ["CCCCN(CCCC)CCOc1ccc(OC(=O)Nc2ccccc2)cc1 [Example 48]", 69]
]}

Tell me measured inhibition at 30 mg/kg for O=C(Nc1ccccc1)Oc1ccc(OCCN2CCC(O)(c3ccccc3)CC2)cc1 [Example 47] please.
80

Tell me measured inhibition at 30 mg/kg for O=C(Nc1ccccc1)Oc1ccc(CCN2CCCCC2)cc1 [Example 52] please.
80

Tell me measured inhibition at 30 mg/kg for CN(C(=O)Oc1ccc(OCCN2CCC(O)(c3ccccc3)CC2)cc1)c1ccccc1 [Example 40] please.
79

Tell me measured inhibition at 30 mg/kg for O=C1CCCN1C1CCN(Cc2ccc(OCCc3ccccc3)cc2)CC1 [Example 99] please.
68

Tell me measured inhibition at 30 mg/kg for O=C(O)C1CCN(Cc2ccc(OCCc3ccccc3)cc2)CC1 [Example 96] please.
80

Tell me measured inhibition at 30 mg/kg for O=C(O)C1CCN(CCOc2ccc(OCCCc3ccccc3)cc2)CC1 [Example 117] please.
74

###

Measured pIC50 of individual entries
biological target: recombinant human LTA4 hydrolase (rhLTA4H) (Homo sapiens); construct: made in house; host or cells: Spodoptera frugiperda (Sf-9) cells, baculovirus (pFastBac1); experiment: Recombinant human LTA4 hydrolase assay for LTA4 hydrolase inhibitor activity; assay type: biochemical
Where a name gives a salt, the structure may show the parent alone.
The read-out pIC50 is expressed as -log10 of concentration in moles per litre.

Study these solved cases before continuing.
{"columns": ["compound", "experimental.system", "pIC50"],
 "data": [
  ["O=C(Nc1ccc(OCCN2CCCCC2)cc1)Oc1ccccc1 [Example 14, hydrochloride]", "recombinant human LTA4 hydrolase (rhLTA4H) (Homo sapiens)", 5.75],
  ["CCCN(CCCc1ccc(OC(=O)Nc2ccccc2)cc1)CC1CC1 [Example 38, hydrochloride]", "recombinant human LTA4 hydrolase (rhLTA4H) (Homo sapiens)", 8.22]
]}

Report value: pIC50, system: recombinant human LTA4 hydrolase (rhLTA4H) (Homo sapiens), compound: CCCCN(CCCC)CCCc1ccc(OC(=O)Nc2ccccc2)cc1 [Example 12, hydrochloride]
8.52

###

target: recombinant human LTA4 hydrolase (rhLTA4H) (Homo sapiens); construct: made in house; host or cells: Spodoptera frugiperda (Sf-9) cells, baculovirus (pFastBac1); assay: Recombinant human LTA4 hydrolase assay for LTA4 hydrolase inhibitor activity; format: biochemical; conditions: recombinant human LTA4H, LTB4 quantified by enzyme-linked immunoassay; average of one to three determinations; read-out: IC50
observed.property: pIC50
The read-out pIC50 is expressed as -log10 of concentration in moles per litre.

Study these solved cases before continuing.
{"columns": ["compound", "experimental.system", "pIC50"],
 "data": [
  ["O=C(O)C1CCN(CCOc2ccc(OCCc3ccccc3)cc2)CC1 [Example 86]", "recombinant human LTA4 hydrolase (rhLTA4H) (Homo sapiens)", 7.77],
  ["O=C1NCCC12CCN(Cc1ccc(OCCc3ccccc3)cc1)CC2 [Example 100]", "recombinant human LTA4 hydrolase (rhLTA4H) (Homo sapiens)", 6.92],
  ["O=C(O)CCN(CCc1ccc(OCCc2ccccc2)cc1)C1CCCCC1 [Example 89]", "recombinant human LTA4 hydrolase (rhLTA4H) (Homo sapiens)", 8.15]
]}

Tell me measured pIC50 for O=C(Nc1ccccc1)Oc1ccc(OCCN2CCCCCC2)cc1 [Example 55] please.
9.30

Tell me measured pIC50 for O=C(Nc1ccccc1)Oc1ccc(CCN2CCCCC2)cc1 [Example 52] please.
8.52

Tell me measured pIC50 for c1ccc(CCCOc2ccc(CN3CCCCC3)cc2)cc1 [Example 97] please.
7.51

Tell me measured pIC50 for O=C1CCCN1C1CCN(CCOc2ccc(OCCc3ccccc3)cc2)CC1 [Example 82] please.
8.22

Tell me measured pIC50 for NC(=O)C1CCN(CCc2ccc(OCC(O)c3ccccc3)cc2)CC1 (stereo not drawn) [Example 78] please.
8.22

Tell me measured pIC50 for OC1CCN(Cc2ccc(OCCCc3ccccc3)cc2)CC1 [Example 108] please.
7.80
